Values were extracted from patent US5401853A.

Experiment: Acute toxicity (LD50) in mice
Settings: mouse, in vivo, po, per os, read-out: LD50 (DL50)
outcome measure: LD50

{"smiles data": "Nc1nnc(SCc2ccccc2)s1", "outcome measure": "LD50", "reported measurement": "> 600 mg/kg"}

Let's switch to this molecule now.
Input "CC(=O)Nc1nnc(SCc2ccccc2)s1" . Output LD50: > 1000 mg/kg

====

Each entry below lists one item and its recorded immobility duration value.
Tested on: mice
Assay: Dispair test (Porsolt) in mice
Assay type: in vivo, Swiss strain male mice (CD-1 Charles River)
Details: 10 mg/kg i.p., 1 hour before test
Number only, no unit.

Solved cases (3 shown):
{"smiles data": "CC(C)Sc1nnc(N)s1", "target or system": "mice", "immobility duration": 165}
{"smiles data": "COc1cccc(CSc2nnc(N)s2)c1", "target or system": "mice", "immobility duration": 187}
{"smiles data": "Nc1nnc(SCc2ccccc2)s1", "target or system": "mice", "immobility duration": 132}

Lab note: "CC(=O)N(C)c1nnc(SC(C)C)s1" gave immobility duration of 204
